Biological target: NL20 human bronchial epithelial cells expressing human Z-AAT (Homo sapiens, UniProt P01009, E366K)
Construct: expressed in transfected cells; host or cells: NL20 human bronchial epithelial cells (NL20-SI line), doxycycline added with compounds
Sequence (P01009 25-418 E366K): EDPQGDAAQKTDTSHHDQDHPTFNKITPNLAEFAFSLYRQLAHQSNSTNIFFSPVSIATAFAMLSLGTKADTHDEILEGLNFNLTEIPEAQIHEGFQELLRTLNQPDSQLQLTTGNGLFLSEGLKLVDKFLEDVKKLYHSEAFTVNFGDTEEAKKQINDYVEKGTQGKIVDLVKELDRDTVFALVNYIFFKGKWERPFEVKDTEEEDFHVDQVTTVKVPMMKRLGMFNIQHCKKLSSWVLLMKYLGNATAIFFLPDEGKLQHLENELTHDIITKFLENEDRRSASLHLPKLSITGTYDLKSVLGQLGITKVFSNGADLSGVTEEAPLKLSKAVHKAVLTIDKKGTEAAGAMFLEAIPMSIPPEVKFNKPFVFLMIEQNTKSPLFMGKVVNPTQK
Assay: AAT Function Assay (MSD Assay NL20-SI Cell Line)
Type: cell-based
Settings: functionally active AAT in supernatant of NL20 cells expressing human Z-AAT, complex with hNE, MSD readout; read-out: NL20 Functional EC50
pEC50: −log10 of the molar value.
READOUT_LABEL: pEC50

Completed entries (count: 4):
>  <COMPOUND>
CC1(C)COC(C)(c2ccc(C(=O)O)cc2F)c2c1n(-c1ccc(F)c(F)c1)c1cc(F)cc(O)c21 (centres unmarked)

>  <pEC50>
> 5.92

$$$$
>  <COMPOUND>
CO[C@]1(C(=O)O)C[C@]2(C1)OCC(C)(C)c1c2c2c(O)cccc2n1-c1ccc(F)cc1

>  <pEC50>
< 5.52

$$$$
>  <COMPOUND>
CC1(C)COC(C)(c2cc(C(=O)O)cs2)c2c1n(-c1ccc(F)cc1)c1cccc(O)c21 (racemic) [Compound 102]

>  <pEC50>
> 5.92

$$$$
>  <COMPOUND>
COc1cc(-n2c3c(c4c(O)cccc42)C(C)(c2ccc(C(=O)O)cc2)OCC3(C)C)ccc1F (centres unmarked)

>  <pEC50>
> 5.92

$$$$

**Q:** Reported pEC50, compound CC1(C)OCC(C)(c2ccc(C(=O)O)s2)c2c1n(-c1ccc(F)cc1)c1cccc(O)c21 (centres unmarked) [Compound 195] : ____
**A:** 5.52 to 5.92

**Q:** Reported pEC50, compound CC1(C)COC(C)(c2ccc(C(=O)O)c(F)c2)c2c1n(-c1ccc(F)cc1)c1cccc(O)c21 (racemic) [Compound 164] : ____
**A:** 5.52 to 5.92

**Q:** Reported pEC50, compound CC1(C)CO[C@@]2(CC[C@H](C(=O)O)C2)c2c1n(-c1ccc(F)cc1)c1cccc(O)c21 [Compound 119] : ____
**A:** 5.52 to 5.92

**Q:** Reported pEC50, compound CC1(C)COC(C)(c2ccc(C(=O)O)c(F)c2)c2c1n(-c1ccc(F)cc1)c1cc(F)cc(O)c21 (centres unmarked) : ____
**A:** > 5.92

**Q:** Reported pEC50, compound "CC1(C)CO[C@]2(C[C@@H](C(=O)O)C2)c2c1n(-c1ccc(F)cc1)c1cccc(O)c12" : ____
**A:** < 5.52

**Q:** Reported pEC50, compound "CC1(C)CO[C@]2(CC[C@](C)(C(=O)O)CC2)c2c1n(-c1ccc(F)cc1)c1cccc(O)c12" : ____
**A:** < 5.52

**Q:** Reported pEC50, compound "CC1(C)CO[C@]2(CC[C@H](C(=O)O)CC2)c2c1n(-c1ccc(F)cc1)c1cccc(O)c12" : ____
**A:** < 5.52

**Q:** Reported pEC50, compound CC1(C)COC(C)(c2cccc(C(=O)O)c2)c2c1n(-c1ccc(F)cc1)c1cccc(O)c21 (racemic) [Compound 149] : ____
**A:** > 5.92

**Q:** Reported pEC50, compound "CC1(C)CO[C@]2(C[C@@](C)(C(=O)O)C2)c2c1n(-c1ccc(F)cc1)c1cccc(O)c12" : ____
**A:** 5.52 to 5.92

**Q:** Reported pEC50, compound CC1(C)COC(C)(c2ccc(C(=O)O)cc2F)c2c1n(-c1ccccc1)c1cccc(O)c21 (centres unmarked) : ____
**A:** > 5.92

**Q:** Reported pEC50, compound CC1(C)COC2(CC3(CC3C(=O)O)C2)c2c1n(-c1ccc(F)cc1)c1cccc(O)c21 (centres unmarked) [Compound 127] : ____
**A:** < 5.52

**Q:** Reported pEC50, compound CC1(C)COC(C)(c2cc(C(=O)O)cs2)c2c1n(-c1ccc(F)cc1)c1cccc(O)c21 (racemic) [Compound 103] : ____
**A:** > 5.92

**Q:** Reported pEC50, compound "CC1(C)CO[C@]2(CC[C@@H](C(=O)O)CC2)c2c1n(-c1ccc(F)c(F)c1)c1cc(F)cc(O)c12" : ____
**A:** > 5.92

**Q:** Reported pEC50, compound "CC1(C)COC2(CCN(c3ncc(C(=O)O)o3)CC2)c2c1n(-c1ccc(F)cc1)c1cccc(O)c21" : ____
**A:** < 5.52

**Q:** Reported pEC50, compound "Cc1cc(-n2c3c(c4c(O)cccc42)[C@]2(CC[C@](C)(C(=O)O)CC2)OCC3(C)C)ccc1F" : ____
**A:** > 5.92
